- system under test: Canine_OSMR_hlgG1_Fc (canine)
- Sequence (chain, as listed by the source limits assumed, form in doubt): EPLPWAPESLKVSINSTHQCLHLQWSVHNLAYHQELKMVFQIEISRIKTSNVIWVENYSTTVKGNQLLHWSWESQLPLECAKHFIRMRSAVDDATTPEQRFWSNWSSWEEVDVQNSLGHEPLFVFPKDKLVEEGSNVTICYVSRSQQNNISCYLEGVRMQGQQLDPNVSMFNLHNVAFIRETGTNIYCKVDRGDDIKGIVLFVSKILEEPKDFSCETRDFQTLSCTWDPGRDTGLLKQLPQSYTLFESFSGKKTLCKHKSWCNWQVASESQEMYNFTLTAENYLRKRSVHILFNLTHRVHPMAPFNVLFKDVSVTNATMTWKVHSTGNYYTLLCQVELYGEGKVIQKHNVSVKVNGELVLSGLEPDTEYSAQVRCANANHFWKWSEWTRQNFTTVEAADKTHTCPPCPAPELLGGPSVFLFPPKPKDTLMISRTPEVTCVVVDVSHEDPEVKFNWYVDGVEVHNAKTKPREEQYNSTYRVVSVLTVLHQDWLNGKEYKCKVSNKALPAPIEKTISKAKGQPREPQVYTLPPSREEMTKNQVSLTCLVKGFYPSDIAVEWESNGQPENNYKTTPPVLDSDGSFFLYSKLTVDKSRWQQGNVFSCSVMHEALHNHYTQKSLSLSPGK
- experiment summary: SPR Biacore, OSMR on chip
Listed here are binders together with their documented koff.
reported property: koff

binder="mouse: canine 19F07 chimera (antibody, V domains shown) VH: EVKLVESEGGLVQPGSSMKLSCTASGFTFSDYYMAWVRQVPEKGLEWVANINYDGSSTYYLDSLKSRFIISRDNAKNILYLQMSSLKSEDTATYYCARGLTWDFDVWGTGTTVTVSS VL: DIVMTQSHKFMSPSVGDRVSITCKASQDVDTAVAWYQQKPGQSPKLLIYLASTRHTGVPDRFTGSGSGTDFTLTISNVQSEDLADYFCQQYSRFPLTFGAGTKLELKR" reported_property=koff result="0.00084 s⁻¹"
binder="mouse: canine 10F07 chimera (antibody, V domains shown) VH: DVKLVESGEGLVKPGGSLKLSCAASGFTFSSYAMSWVRQTPEKRLEWVTYISSGGDYFYYADTVKGRFTISRDNARNTLYLQMSSLKSEDTAMYYCTRDPITGTFAYWGQGTLVTVSA VL: DIQMTQTTSSLSASLGDRVTISCRASQDITNYLNWYQQKPDGTVKLLIYYTSTLHSGVPSRFSGSGSGTDFSLTISNLEQEDIATYFCQQGHMLPWTFGGGTKLEIKR" reported_property=koff result="0.000222 s⁻¹"
binder="mouse: canine 09E09 chimera (antibody, V domains shown) VH: DVKLVESGEGLVKPGGSLKLSCAASGFTFSSYAMSWVRQTPEKRLEWVAYISSGGDYIYYADTVKGRFTISRDNARNTLYLQMSSLKSEDTAMYYCTRDPITGTFAYWGQGTLVTVSA VL: DLQMTQTTSSLSASLGDRVTISCRASQDINNYLNWYQQKPDGTVKLLIYYTSTLHSGVPSRFSGSGSGTDYSLTISNLEQEDIATYFCQQGNTLPWTFGGGTKLEIKR" reported_property=koff result="0.00104 s⁻¹"
